The values you see were collected from patent US11505537B2.

d:l Ratio Cmax values for the compounds below.
# test_protocol: Oral PK in rats of d- and l-isomers (unconjugated MPH, L-Ser and L-Thr conjugates) at equimolar doses
# study_conditions: d-isomer vs l-isomer, mean Cmax
Dear colleague, please return just the value in %, with no unit written.

Endpoint output: d:l Ratio Cmax of COC(=O)C(c1ccccc1)C1CCCCN1C(=O)OC[n+]1cccc(C(=O)N[C@H](C(=O)[O-])[C@@H](C)O)c1 (stereo partly shown) . Value? 58

// returns reported d:l Ratio Cmax for input COC(=O)C(c1ccccc1)C1CCCCN1C(=O)OC[n+]1cccc(C(=O)N[C@@H](CO)C(=O)[O-])c1 (stereo partly shown) 94
